PROTOCOL: Hemolytic assay
Assay type: cell-based
MEASUREMENT_CONDITIONS: human, human red blood cells (erythrocytes/PBS suspension)
READOUT_NAME: hemolysis at 1 h, 400 μg/mL (%)
Output spec: scalar in %, unitless text.

# query: hemolysis at 1 h, 400 μg/mL of entry CNC1=C([N+](=O)[O-])C2(C(=O)Nc3ccccc32)C2=C(O1)C(=O)c1ccccc1C2=O (stereo not shown) [Compound 4l]
32

====

PROTOCOL: Hemolytic assay
Format: cell-based
MEASUREMENT_CONDITIONS: human, human red blood cells (erythrocytes/PBS suspension)
READOUT_NAME: hemolysis at 1 h, 100 μg/mL (%)
Output spec: scalar in %, unitless text.

# query: hemolysis at 1 h, 100 μg/mL of entry CNC1=C([N+](=O)[O-])C2(C(=O)Nc3ccccc32)C2=C(O1)C(=O)c1ccccc1C2=O (stereo not shown)
13
